Settings: buffer; pH 7.4; 200.0 µM
parameter.measured: solubility kinetic

The molecule identified as O=C(CCl)Nc1ccc(S(=O)(=O)NC2=NCCCCC2)cc1 registered its solubility kinetic at > 51.6 µg/mL

The molecule CN(C(=O)c1ccc(Br)o1)C1(C)CCS(=O)(=O)C1 (stereo unspecified) showed solubility kinetic equal to > 50.4 µg/mL

Lab note: measured solubility kinetic of COc1ccc(/C=N/NC(=O)c2cc[n+]([O-])cc2)cc1 was > 40.7 µg/mL

The reported solubility kinetic of the molecule CC(C)(C)C(=O)COc1ccccc1[N+](=O)[O-] was > 35.6 µg/mL

Entry O=C(NCCN1CCOCC1)c1cc(-c2cccc(O)c2)on1 — recorded solubility kinetic = > 47.6 µg/mL

Lab note: measured solubility kinetic of O=C(c1cccc([N+](=O)[O-])c1)N1CCCC(C(=O)N2CCCCC2)C1 (stereo unspecified) was > 51.8 µg/mL

Looking up CNC(=O)CSc1nc2ccccc2c(=O)n1CCc1ccccc1 , I see its solubility kinetic listed as < 0.3 µg/mL

Kindly note the recorded solubility kinetic for Cc1nnc(Nc2ccccc2F)s1 , which is > 31.4 µg/mL

# solubility kinetic of O=C(CCc1nnc(C2CCCCC2)o1)NCc1ccc(F)c(F)c1 = > 52.4 µg/mL

The recorded solubility kinetic for entry CC1CN(C(=S)Nc2ccc(SC(F)F)cc2)CC(C)O1 (stereo unspecified) equals > 49.9 µg/mL

Memo: O=C(NC1CCCCC1)c1cc2cc(Br)ccc2o1 , reported solubility kinetic: < 0.7 µg/mL

Note to self: solubility kinetic recorded for CN(CC(=O)Nc1ccccc1C(F)(F)F)C(=O)C1CC1 was > 45 µg/mL

Value of solubility kinetic reported for the molecule COc1ccc(NS(=O)(=O)c2ccc3oc(=S)[nH]c3c2)cc1 is > 50.5 µg/mL

Given item Cc1ccc(C(=O)NS(=O)(=O)c2ccc(C)cc2)cc1 , the value recorded as its solubility kinetic is > 43.4 µg/mL

get_value(item= CCOC(=O)Cc1csc(NC(=O)CSc2nccn2C)n1 , readout=solubility kinetic) returns > 51.1 µg/mL

Field solubility kinetic (entry O=C(COC(=O)c1ccccc1)Nc1ncc([N+](=O)[O-])s1 ) reads > 46.1 µg/mL

What the record says about C[C@@H](C(=O)N1CCN(c2ccccc2)CC1)N1C(=O)C2CC=CCC2C1=O (stereo partly specified) : solubility kinetic is > 55.1 µg/mL

So, O=C1CN(C(=O)COc2ccccc2)c2ccccc2N1 ? Its solubility kinetic was > 42.3 µg/mL

Record CCCCN(C(=O)C1CCCC1)C1CCS(=O)(=O)C1 (stereo unspecified) . Reported solubility kinetic: > 43.1 µg/mL

Input CC(=O)C1=C(O)C(=O)N(c2nccs2)C1c1ccccc1F (stereo unspecified) . Output solubility kinetic: > 47.7 µg/mL

solubility kinetic measured on CC1CCC(N2CCNCC2)CC1.Cl (stereo unspecified) = > 32.8 µg/mL

###

Details: buffer; pH 7.4; 200.0 µM
parameter.measured: solubility kinetic

The recorded solubility kinetic for O=C(c1ccc(F)cc1)C1CCN(C(=O)c2ccc(F)cc2)CC1 is > 49.4 µg/mL

Consider COc1cccc(Cn2c(=O)c3[nH]cnc3n(-c3ccccc3C)c2=O)c1 . Its measured solubility kinetic is > 54.4 µg/mL

Reported solubility kinetic for Cc1ccc([N+](=O)[O-])c(OCC(O)CNC(C)(C)C)c1.Cl (stereo unspecified) was > 47.8 µg/mL

What the record says about O=C(CSc1nccc(=O)[nH]1)c1c[nH]c2ccccc12 : solubility kinetic is > 42.8 µg/mL

For record COC(=O)C1CCN(CC(=O)NC(=O)Nc2ccccc2F)CC1 the listed solubility kinetic is > 50.6 µg/mL

Data point: O=C(/C=C/c1ccco1)Nc1ccc2c(c1)OCCO2 ; solubility kinetic = > 40.7 µg/mL

solubility kinetic reported for this compound CCOC(=O)C1=C(C)NC(C)=C(C(=O)OCC)C1C(=O)OCC(=O)NCCc1ccccc1 : > 68.8 µg/mL

Data point: CCN(C(=O)c1ccc(=O)n(C)n1)c1c(N)n(Cc2ccccc2)c(=O)[nH]c1=O ; solubility kinetic = > 59.5 µg/mL

Per the records, this compound ( NC(=O)Cn1cnc2nc3n(c2c1=O)CCC3 ) has solubility kinetic equal to > 35 µg/mL

Record summary for Cc1cccc(C)c1NC(=O)C(C)N1CCCC1 (stereo unspecified) : reported solubility kinetic = > 37 µg/mL

Record summary for O=C(CSc1nc2ncc(Cl)cc2[nH]1)N1CCOCC1 : reported solubility kinetic = > 46.9 µg/mL

###

I'd be grateful if you could share measured solubility kinetic for these entries.
Details: buffer; pH 7.4; 200.0 µM

// recorded solubility kinetic for Cl.NCCN1C(=O)S/C(=C\c2ccc3c(c2)OCO3)C1=O : > 49.3 µg/mL

Note to self: solubility kinetic recorded for Cc1ccc(F)cc1NS(=O)(=O)c1ccc(Cl)s1 was > 45.9 µg/mL

Short answer for Cc1nn(CCCC(=O)Nc2cccnc2Cl)c(C)c1[N+](=O)[O-] : solubility kinetic was > 50.7 µg/mL

Lab note: O=C(NCCNC(=O)c1cnccn1)c1ccc(Cl)cc1 gave solubility kinetic of > 45.7 µg/mL

Noted for Cc1cc(C)n(NC(=S)NC2CCCCC2)c(=O)c1C#N : its solubility kinetic reads > 45.7 µg/mL

Reported solubility kinetic of COc1ccc(C(=O)NC2CC3CCCC(C2)N3CC(C)C)cc1 (stereo unspecified) : > 49.6 µg/mL

###

Conditions: buffer; pH 7.4; 200.0 µM
Assign solubility kinetic to each entry below.

solubility kinetic reported for this compound CCOc1ccc(C(=O)CCC(=O)Nc2ncccc2O)cc1 : > 47.2 µg/mL

Record O=C(NCc1ccccc1Cl)NC(=O)c1csc([N+](=O)[O-])c1 , field solubility kinetic: < 0.2 µg/mL

Record summary for O=C(NCc1ccc(Cl)cc1)N1CCOCC1 : reported solubility kinetic = > 38.2 µg/mL

So for Cc1ccc2c(CN(C)Cc3cccc(Cl)c3)cc(=O)oc2c1C , the logged solubility kinetic turned out to be < 0.7 µg/mL

Looking up Nc1ccc(-c2nc3cc(N)ccc3n2CCO)cc1 , I found its solubility kinetic recorded as > 40.2 µg/mL

response.value for Cc1[nH]c2ccccc2c1C(=O)CN1CC(C)CC(C)C1 (centres undefined) (field: solubility kinetic) = > 42.7 µg/mL

The reported solubility kinetic of the compound O=[N+]([O-])c1ccc(/C=C/c2ccc3cccc(O)c3n2)cc1 was < 0.3 µg/mL

CCc1ccc(OC)c(-c2csc(N)n2)c1 yielded solubility kinetic of > 35.1 µg/mL

Query NS(=O)(=O)c1ccc(N2CCN(C(=O)c3ccco3)CC2)nc1 yields solubility kinetic of > 50.5 µg/mL

The reported solubility kinetic of the compound Cc1cccc(N2N=C(C(=O)O)CCC2=O)c1 was > 34.8 µg/mL

Recorded result, CN(C(=O)CSc1nc2ccccc2c(=O)n1C)C1CCS(=O)(=O)C1 (centres undefined) , solubility kinetic: > 57.2 µg/mL

Quick note, solubility kinetic for Cc1cc2c(sc3c(C)ccc(C)c32)c(C)n1.Cl landed at < 0.6 µg/mL

Per the records, this compound ( COc1cc(Cl)c(C)cc1NC(=O)CN1CCCCCC1 ) has solubility kinetic equal to < 0.3 µg/mL

Record O=C(NC1CC1)C1CCCN1C(=O)NC1CCCCC1 (centres undefined) . Reported solubility kinetic: > 41.9 µg/mL

Input CCN(/C(N)=N/c1nc(C)cc(C)n1)c1ccccc1 . Output solubility kinetic: > 40.4 µg/mL

# compound CN(C)c1ccc(C(=O)N2CCCC2)cc1 ; its solubility kinetic = > 32.7 µg/mL

Quick note, solubility kinetic for COC(=O)CC1C(=O)NC2CCCCC2N1C(=O)CCl (centres undefined) landed at > 45.4 µg/mL

O=C(O)c1ccc(Cn2cnc3cccnc32)cc1 yielded solubility kinetic of > 38 µg/mL

For this compound ( CC(C)S(=O)(=O)c1csc(NC(=O)Nc2ccc(Cl)cc2)c1Cl ), measured solubility kinetic is < 0.4 µg/mL

Per the records, this compound ( COc1ccc2[nH]cc(C(=O)CN3CC(C)CC(C)C3)c2c1 (centres undefined) ) has solubility kinetic equal to > 45.1 µg/mL

Field solubility kinetic (entry COc1ccccc1C(=O)OC(C)CN1CCN(C)CC1.Cl (centres undefined) ) reads > 49.3 µg/mL

Recorded result, COc1ccc(CCNC(=O)c2cccnc2Cl)cc1OC , solubility kinetic: > 48.1 µg/mL

// solubility kinetic value for O=C(COC(=O)C1CCC1)NCc1ccc(Cl)cc1Cl : > 47.4 µg/mL

Please fill in: solubility kinetic reported for COc1ccc2cc(C(=O)NCc3ccccc3)c(=O)oc2c1 = < 0.7 µg/mL

###

Conditions: buffer; pH 7.4; 200.0 µM
Consider the following molecules; for each one, report its solubility kinetic.
Just the number please, in µg/mL, no unit attached.

Reported solubility kinetic for O=C(CNc1cccc([N+](=O)[O-])c1)NC(=O)NC1CCCCC1 was 30

The reported value for Cc1cccc(NC(=O)NCc2ccc3c(c2)OCO3)c1 in terms of solubility kinetic is 1.6

Noted for O=c1oc(Nc2ccccc2Cl)nc2ccccc12 : its solubility kinetic reads 7.9

So for Cc1ccc(-n2cnc3sc(C)c(C)c3c2=O)cc1 , the logged solubility kinetic turned out to be 0.8

Value of solubility kinetic reported for the molecule O=[N+]([O-])c1ccc2c(c1)nc(CO)n2Cc1ccccc1 is 9.3

Documented solubility kinetic of O=C(CN1CCc2ccccc2C1)Nc1ccc(OC(F)(F)F)cc1 : 0.9

# solubility kinetic of Cc1ccccc1CSCC(=O)NCCSc1ccccn1 = 49.1

For reference, reported solubility kinetic for COc1ccc(CC(=O)N2CCN(c3ccccc3)CC2)cc1 stands at 31.7

For this molecule ( Cc1cc(C(=O)OCC(=O)NC(C)c2ccc(F)cc2)c(C)o1 (stereo unspecified) ), measured solubility kinetic is 11.4

# molecule COc1ccc(NC(=S)NC(=O)Cc2ccccc2)c(OC)c1 ; its solubility kinetic = 1.7

Record CN(C)/C=C1/OC(=O)C(C#N)=C1c1ccc(Cl)cc1 , field solubility kinetic: 2.4

# molecule CC(C)CC(NC(=O)C1CCC(C)CC1)C(=O)NCc1ccco1 (stereo unspecified) ; its solubility kinetic = 25.2

For reference, reported solubility kinetic for COc1ccc(C(=O)COc2ccccc2C#N)cc1 stands at 3.6

For this molecule ( COC(=O)c1sccc1NC(=O)CSCCc1ccncc1 ), measured solubility kinetic is 49.6

Measured solubility kinetic of CCC1CCC(N2CCN(c3cccc(OC)c3)CC2)CC1 (stereo unspecified) : 32.6

For this molecule ( COc1ccc(S(=O)(=O)Nc2noc3ccccc23)cc1 ), measured solubility kinetic is 42.1

Measured solubility kinetic of Cc1cc(C)c(S(=O)(=O)c2ccc(F)cc2C)c(Cl)n1 : 36.8

// solubility kinetic lookup, molecule = COCC(=O)Nc1ccc2nc3n(c(=O)c2c1)CCCCC3 , result: 41.7

The molecule listed as COc1ccc(C(=O)C2CCN(C(=O)c3ccc(F)cc3)CC2)cc1 shows solubility kinetic equal to 50.6

Item: Cc1ccc(C)c(N(CC(=O)N2CCc3ccccc3C2)S(C)(=O)=O)c1 | solubility kinetic: 52.8

The value of solubility kinetic measured for the molecule Cc1cccc(OCC(=O)Nc2ccc3nc(C)sc3c2)c1 turned out to be 1.8

Record summary for COc1ccccc1CNC(=O)c1cc(C(=O)CC(C)C)c[nH]1 : reported solubility kinetic = 1.6
